target: monkey MSLN full-length protein expressed on HEK293T cells (HEK293T-monkey MSLN) (monkey); assay: FACS on HEK293T-monkey MSLN cells
# strict inequality: EC50 < 0.6 nM yields y, everything else yields n

Example entries begin here.
{"columns": ["binder", "group_label"],
 "data": [
  ["S009-F8-8.22 (antibody, human IgG1, kappa, V domains shown) VH: EVQLQQSGPELVKPGASVKMSCKASGYTFTDYIIHWVKQSHGKSLEWIAYIFPNNGGTGYNQKFRGKATLTVNKSSSTAYMELRSLTSEDSAVYYCARWRLRQYFDVWGTGTTVTVSS VL: DIVMTQSQKFMSTIVGDRVSITCKASQNVGTAVAWYQQKPGQSPKLLIYSASNRYTGVPDRFTGSGSGTDFTLTISNMQSEDLADYFCQQYSSYPLTFGGGTKLEIKR", "y"],
  ["S009-F8-15.19 (antibody, human IgG1, kappa, V domains shown) VH: EFQLQQSGPELVKPGASVKISCKASGYSFTDYNMNWVKQSNGKSLEWIGIINPYYGTTSNNQNFKGKATLTVDQSSSTAYMQLNSLTSDDSAVYYCARWLRRDAMDYWGQGTSVTVSS VL: DIVMTPSHKFMSTSVGDRVSIACKASQDVGSSVAWYQQKPGQSPKLLIYWTSTRHTGVPDRFTGSGSGTDFTLTISNVQSEDLADYFCQQYSSYPWTFGGGTKLEIKR", "y"],
  ["S009-F8-12.13 (antibody, human IgG1, kappa, V domains shown) VH: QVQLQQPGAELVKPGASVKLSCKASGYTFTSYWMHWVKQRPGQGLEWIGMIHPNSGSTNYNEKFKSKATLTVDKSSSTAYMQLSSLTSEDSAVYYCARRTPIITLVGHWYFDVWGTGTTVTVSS VL: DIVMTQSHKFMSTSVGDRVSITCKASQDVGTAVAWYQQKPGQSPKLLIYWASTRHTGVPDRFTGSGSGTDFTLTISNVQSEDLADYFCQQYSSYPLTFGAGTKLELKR", "y"],
  ["S009-F8-33.12 (antibody, human IgG1, kappa, V domains shown) VH: EVQLQQSGAELVKPGASVKLSCTASAFNIKDYYMHWVKQRTEQGLEWIGRIDPEDGETKYAPKFQGKATITADTSSNTAYLQLSSLTSEDTAVYYCASGSGTGAMDYWGQGTSVTVSS VL: DIVMTQSQKFMSTSVGDRVSITCKASQNVRTAVGWYQQKPGQSPKALIYLASNRHTGVPDRFTGSGSGTDFTLTISNVQSEDLADYFCLQHWNSPYTFGGGTKLVIKR", "n"]
]}

# ---- query binder ----
[Q] Input S009-F8-32.3 (antibody, human IgG1, kappa, V domains shown) VH: QVQLKESGPGLVAPSQSLSITCTVSGFSLSSYAISWVRQPPGKGLEWLGVIWTGGGTNYNSALKSRLSISKDNSKSQVFLKMNSLQTDDTARFYCARNNYGRLDYAMDYWGQGTSVTVSS VL: DVVMTQTPLSLPVSLGDQASISCRSSQSLVHGNGNTYLHWYLQKPGQSPKLLIYKVSNRFSGVPDRFSGSGSGTDFTLKISRVETEDLGVYFCSQSTHVPFTFGSGTKLEIKR ; condition: EC50 strictly below 0.6 nM. Does it hold?
[A] n
